Target: Serine/threonine-protein kinase Chk1 (Homo sapiens)
Sequence (O14757 whole entry): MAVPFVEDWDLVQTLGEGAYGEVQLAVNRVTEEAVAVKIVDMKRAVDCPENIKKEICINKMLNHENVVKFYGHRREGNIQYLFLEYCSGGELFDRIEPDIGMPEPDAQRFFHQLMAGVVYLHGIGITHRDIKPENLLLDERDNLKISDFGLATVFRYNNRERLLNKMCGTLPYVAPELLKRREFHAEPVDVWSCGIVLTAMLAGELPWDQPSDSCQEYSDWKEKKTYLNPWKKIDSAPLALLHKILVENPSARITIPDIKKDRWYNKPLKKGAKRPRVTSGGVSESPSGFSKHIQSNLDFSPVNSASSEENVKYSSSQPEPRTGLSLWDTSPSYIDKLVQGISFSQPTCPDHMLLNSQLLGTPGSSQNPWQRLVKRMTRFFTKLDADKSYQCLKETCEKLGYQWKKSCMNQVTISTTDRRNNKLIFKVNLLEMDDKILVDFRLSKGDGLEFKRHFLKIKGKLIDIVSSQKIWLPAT
pIC50: −log10 of the molar value.

test-smiles | pIC50
C[C@@H]1CCN(C(=O)CC#N)C[C@@H]1n1ccc2cnc3[nH]ccc3c21 | < 6.00

###

Molecular target: UniProtKB P29317
Sequence (P29317 whole entry): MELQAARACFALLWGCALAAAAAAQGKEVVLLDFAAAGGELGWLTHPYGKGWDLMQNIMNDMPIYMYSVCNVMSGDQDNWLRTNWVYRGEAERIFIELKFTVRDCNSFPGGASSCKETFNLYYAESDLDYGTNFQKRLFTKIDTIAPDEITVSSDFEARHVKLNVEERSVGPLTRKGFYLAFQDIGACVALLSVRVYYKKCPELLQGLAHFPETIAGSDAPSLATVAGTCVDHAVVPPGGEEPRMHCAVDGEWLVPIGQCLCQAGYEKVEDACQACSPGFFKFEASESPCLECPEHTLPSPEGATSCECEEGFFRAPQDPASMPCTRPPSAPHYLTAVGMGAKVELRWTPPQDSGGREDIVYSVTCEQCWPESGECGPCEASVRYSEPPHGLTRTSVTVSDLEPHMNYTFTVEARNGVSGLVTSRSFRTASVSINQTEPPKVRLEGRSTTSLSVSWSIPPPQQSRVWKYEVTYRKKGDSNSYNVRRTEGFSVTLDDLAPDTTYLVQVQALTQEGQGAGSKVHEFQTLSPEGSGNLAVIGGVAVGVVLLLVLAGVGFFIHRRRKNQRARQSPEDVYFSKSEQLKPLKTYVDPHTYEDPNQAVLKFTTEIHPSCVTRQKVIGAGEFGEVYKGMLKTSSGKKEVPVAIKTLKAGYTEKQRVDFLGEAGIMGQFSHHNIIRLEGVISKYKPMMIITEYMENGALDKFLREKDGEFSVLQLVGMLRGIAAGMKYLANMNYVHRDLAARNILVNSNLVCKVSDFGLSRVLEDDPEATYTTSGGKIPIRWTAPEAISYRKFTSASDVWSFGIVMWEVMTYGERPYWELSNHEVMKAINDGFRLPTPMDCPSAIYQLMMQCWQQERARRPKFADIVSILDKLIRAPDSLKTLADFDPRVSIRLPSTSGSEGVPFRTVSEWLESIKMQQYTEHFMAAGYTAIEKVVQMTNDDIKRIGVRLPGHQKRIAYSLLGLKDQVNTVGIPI
recorded-endpoint: IC50

test-smiles | recorded-endpoint | endpoint-value
C[C@@H]1CCN(C(=O)CC#N)C[C@@H]1n1ccc2cnc3[nH]ccc3c21 | IC50 | > 1 µM

###

Biological target: Epidermal growth factor receptor (Homo sapiens, UniProt P00533)
Sequence (P00533 whole entry): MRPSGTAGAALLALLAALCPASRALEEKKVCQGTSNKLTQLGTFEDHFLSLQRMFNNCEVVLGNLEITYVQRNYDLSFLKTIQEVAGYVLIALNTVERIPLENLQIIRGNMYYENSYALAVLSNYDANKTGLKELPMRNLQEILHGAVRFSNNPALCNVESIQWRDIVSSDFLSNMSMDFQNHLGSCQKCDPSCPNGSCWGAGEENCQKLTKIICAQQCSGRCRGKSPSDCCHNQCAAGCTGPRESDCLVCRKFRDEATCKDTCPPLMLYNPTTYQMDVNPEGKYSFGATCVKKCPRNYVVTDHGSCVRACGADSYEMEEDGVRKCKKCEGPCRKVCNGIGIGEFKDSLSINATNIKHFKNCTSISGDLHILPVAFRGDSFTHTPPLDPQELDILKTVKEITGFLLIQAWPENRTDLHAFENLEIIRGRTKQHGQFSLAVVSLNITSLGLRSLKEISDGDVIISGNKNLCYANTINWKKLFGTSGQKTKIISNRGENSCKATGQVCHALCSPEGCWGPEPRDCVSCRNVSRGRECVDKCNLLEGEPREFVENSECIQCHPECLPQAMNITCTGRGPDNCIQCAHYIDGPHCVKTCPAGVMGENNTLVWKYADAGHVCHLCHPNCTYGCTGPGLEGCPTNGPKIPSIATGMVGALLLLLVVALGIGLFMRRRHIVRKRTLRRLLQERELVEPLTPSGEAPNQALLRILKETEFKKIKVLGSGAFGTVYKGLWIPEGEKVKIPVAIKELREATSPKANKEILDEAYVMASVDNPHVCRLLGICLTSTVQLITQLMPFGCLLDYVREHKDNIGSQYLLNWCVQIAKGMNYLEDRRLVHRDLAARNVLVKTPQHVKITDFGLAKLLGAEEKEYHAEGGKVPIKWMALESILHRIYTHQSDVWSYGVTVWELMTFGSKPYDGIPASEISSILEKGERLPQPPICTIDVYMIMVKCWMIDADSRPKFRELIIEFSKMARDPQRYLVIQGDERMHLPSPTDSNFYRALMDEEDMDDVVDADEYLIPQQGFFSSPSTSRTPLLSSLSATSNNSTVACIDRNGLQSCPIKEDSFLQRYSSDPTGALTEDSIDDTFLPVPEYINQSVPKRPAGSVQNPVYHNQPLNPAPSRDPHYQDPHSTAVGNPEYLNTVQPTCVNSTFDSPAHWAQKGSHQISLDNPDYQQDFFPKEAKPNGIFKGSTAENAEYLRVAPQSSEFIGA
pIC50: −log10 of the molar value.

test-smiles | pIC50
C[C@@H]1CCN(C(=O)CC#N)C[C@@H]1n1ccc2cnc3[nH]ccc3c21 | < 6.00
C[C@@H]1CCN(C(=O)CC#N)C[C@@H]1n1ccc2cnc3[nH]cc(C#N)c3c21 | < 6.00
